- Test system: S. aureus (MRSA) 1199B
- METHOD SUMMARY: microbe, parasite or virus in culture
- Type: cell-based, Staphylococcus aureus
- CONDITION PARAMETERS: S. aureus (MRSA) 1199B (R); shown in µM
Where a SMILES comes first, the peptide text is derived from it.
ASSAY READOUT: Modal MIC

# COMPOUND, Modal MIC
measured = [
    ("CC[C@H](C)[C@H](NC(=O)[C@H](C)NC(=O)[C@H](CCCCN)NC(=O)[C@@H]1CCCN1C(=O)[C@@H](NC(=O)[C@H](CC(C)C)NC(=O)[C@H](CCCCN)NC(=O)[C@H](Cc1ccccc1)NC(=O)[C@H](CC(C)C)NC(=O)[C@@H](N)Cc1ccccc1)[C@@H](C)CC)C(=O)N[C@@H](CCCCN)C(=O)N[C@@H](CCCCN)C(=O)N[C@@H](CC(C)C)C(=O)N[C@H](C(=O)N[C@@H](CO)C(=O)N[C@@H](CCCCN)C(=O)N[C@@H](Cc1ccccc1)C(=O)N[C@@H](CCCCN)C(N)=O)[C@@H](C)CC [AamAP1-Lysa] (H-FLFKLIPKAIKKLISKFK-NH2)", "1.8 µM"),
    ("CC[C@H](C)[C@H](NC(=O)[C@H](CCCCN)NC(=O)[C@H](CC(C)C)NC(=O)[C@H](C)NC(=O)[C@H](C)NC(=O)[C@H](CCCCN)NC(=O)[C@H](CC(C)C)NC(=O)[C@H](C)NC(=O)[C@@H](N)CCCCN)C(=O)NCC(N)=O [CPF-P3-10a] (H-KALKAALKIG-NH2)", "> 122 µM"),
    ("CC(C)[C@H](NC(=O)CNC(=O)[C@H](CCCNC(=N)N)NC(=O)[C@@H](N)CCCNC(=N)N)C(=O)N[C@@H](CS)C(=O)N[C@@H](CCCNC(=N)N)C(=O)N[C@@H](CS)C(=O)N[C@H](C(=O)N[C@@H](CS)C(=O)N[C@@H](CCCNC(=N)N)C(=O)N[C@@H](CCCNC(=N)N)C(N)=O)C(C)C [BTD11a] (H-RRGVCRCVCRR-NH2; N-terminus assumed)", "> 94 µM"),
    ("C[C@H](NC(=O)CNC(=O)[C@H](CCCCN)NC(=O)[C@@H](N)CS)C(=O)N[C@@H](Cc1ccccc1)C(=O)N[C@@H](CCCCN)C(=O)N[C@@H](CCC(N)=O)C(=O)N[C@H](C(=O)N[C@@H](CS)C(=O)N[C@@H](CCCCN)C(=O)N[C@@H](CS)C(=O)N[C@@H](Cc1ccc(O)cc1)C(N)=O)[C@@H](C)O [Os(11-22)a] (H-CKGAFKQTCKCY-NH2; N-terminus assumed)", "> 91.7 µM"),
    ("CC(C)C[C@H](NC(=O)[C@H](CCCCN)NC(=O)[C@H](CCCCN)NC(=O)[C@H](C)NC(=O)[C@H](CC(C)C)NC(=O)[C@H](CCCCN)NC(=O)[C@H](CO)NC(=O)[C@H](CCCCN)NC(=O)[C@H](Cc1c[nH]c2ccccc12)NC(=O)[C@H](C)NC(=O)[C@H](CCCCN)NC(=O)[C@H](CCCCN)NC(=O)[C@H](CC(C)C)NC(=O)[C@H](Cc1ccccc1)NC(=O)[C@H](CO)NC(=O)CN)C(N)=O [PS-PB-16a] (H-GSFLKKAWKSKLAKKL-NH2)", "> 67.8 µM"),
]

Query: Please give the documented Modal MIC of CC[C@H](C)[C@H](NC(=O)[C@H](C)NC(=O)CNC(=O)[C@H](C)NC(=O)[C@H](CCCCN)NC(=O)[C@H](CO)NC(=O)[C@H](C)NC(=O)[C@H](CCSC)NC(=O)CN)C(=O)N[C@@H](C)C(=O)NCC(=O)N[C@@H](CCCCN)C(=O)N[C@H](C(=O)N[C@@H](C)C(=O)N[C@@H](CCCCN)C(=O)N[C@H](C(=O)N[C@@H](C)C(=O)N[C@@H](CC(C)C)C(=O)N[C@@H](CCCCN)C(=O)N[C@@H](C)C(=O)N[C@@H](CC(C)C)C(N)=O)C(C)C)[C@@H](C)CC [DRAMP02272a] (H-GMASKAGAIAGKIAKVALKAL-NH2)
Response: 32 µM

Query: Assign Modal MIC to the following record: CC[C@H](C)[C@H](NC(=O)[C@H](CCCCN)NC(=O)[C@H](CC(C)C)NC(=O)[C@H](C)NC(=O)[C@H](C)NC(=O)[C@H](CCCCN)NC(=O)[C@H](CC(C)C)NC(=O)[C@H](C)NC(=O)[C@@H](N)CCCCN)C(=O)NCC(=O)N[C@@H](C)C(=O)N[C@@H](CC(N)=O)C(N)=O [CPF-P3-12a] (H-KALKAALKIGAN-NH2)
Response: > 103.8 µM

Query: Tell me its Modal MIC given CC[C@H](C)[C@H](NC(=O)[C@H](C)NC(=O)[C@H](CCCCN)NC(=O)[C@@H]1CCCN1C(=O)[C@@H](NC(=O)[C@H](CC(C)C)NC(=O)[C@H](CO)NC(=O)[C@H](Cc1ccccc1)NC(=O)[C@H](CC(C)C)NC(=O)[C@@H](N)Cc1ccccc1)[C@@H](C)CC)C(=O)NCC(=O)NCC(=O)N[C@@H](CC(C)C)C(=O)N[C@H](C(=O)N[C@@H](CO)C(=O)N[C@@H](C)C(=O)N[C@@H](Cc1ccccc1)C(=O)N[C@@H](CCCCN)C(N)=O)[C@@H](C)CC [AamAP-S1a] as the entry.
Response: 2 µM

Query: Supply measured Modal MIC of CC(C)C[C@H](NC(=O)[C@H](CCCCN)NC(=O)[C@H](CO)NC(=O)[C@H](CCCCN)NC(=O)[C@H](Cc1c[nH]c2ccccc12)NC(=O)[C@H](C)NC(=O)[C@H](CCCCN)NC(=O)[C@H](CCCCN)NC(=O)[C@H](CC(C)C)NC(=O)[C@H](Cc1ccccc1)NC(=O)[C@H](CO)NC(=O)CN)C(=O)N[C@@H](C)C(=O)N[C@@H](CCCCN)C(=O)N[C@@H](CCCCN)C(=O)N[C@@H](CC(C)C)C(=O)N[C@@H](CCCNC(=N)N)C(=O)N[C@@H](C)C(=O)N[C@@H](CCCCN)C(=O)NCC(N)=O [PS-PB-20a] (H-GSFLKKAWKSKLAKKLRAKG-NH2) in your reply.
Response: > 55.7 µM

---

- Tested on: C. auris TDG 1912
- METHOD SUMMARY: microbe, parasite or virus in culture
- Type: cell-based, Candida auris
- CONDITION PARAMETERS: C. auris TDG 1912; shown in µM
Where a SMILES comes first, the peptide text is derived from it.
Recorded measurements of Modal MIC90, one per entry

# COMPOUND, Modal MIC90
measured = [
    ("CC(C)C[C@H](NC(=O)[C@H](CCCCN)NC(=O)[C@H](CO)NC(=O)[C@H](CCCCN)NC(=O)[C@@H](N)Cc1c[nH]c2ccccc12)C(=O)N[C@@H](C)C(=O)N[C@@H](CCCCN)C(=O)N[C@@H](CCCCN)C(N)=O [PS-PB-8a] (H-WKSKLAKK-NH2)", "> 127.2 µM"),
]

Query: Give the value of Modal MIC90 reported for the following: CC[C@H](C)[C@H](NC(=O)[C@H](CCCCN)NC(=O)[C@H](CCC(=O)O)NC(=O)[C@H](Cc1c[nH]c2ccccc12)NC(=O)[C@H](Cc1ccccc1)NC(=O)[C@H](CCCCN)NC(=O)CNC(=O)[C@H](CC(C)C)NC(=O)[C@H](C)N)C(=O)N[C@@H](CCCCN)C(=O)N[C@@H](CO)C(=O)N[C@@H](CC(C)C)C(=O)N[C@@H](Cc1ccccc1)C(N)=O [A1F5K8-IsCTa] (H-ALGKFWEKIKSLF-NH2)
Response: > 79.9 µM

---

- System: S. aureus (MSSA) ATCC 9144
- METHOD SUMMARY: microbe, parasite or virus in culture
- Format: cell-based, Staphylococcus aureus
- CONDITION PARAMETERS: S. aureus (MSSA) ATCC 9144 (S); shown in µM
Where a SMILES comes first, the peptide text is derived from it.
Measured Modal MIC, listed per entry for reference.
Provide only the numeric value, understood in µM.

Past entries and their recorded results:
# COMPOUND, ASSAY READOUT, EXPERIMENTAL RESULT
records = [
    ("CC[C@H](C)[C@H](NC(=O)[C@H](C)NC(=O)CNC(=O)[C@H](C)NC(=O)[C@H](CCCCN)NC(=O)[C@H](CO)NC(=O)[C@H](C)NC(=O)[C@H](CCSC)NC(=O)CN)C(=O)N[C@@H](C)C(=O)NCC(=O)N[C@@H](CCCCN)C(=O)N[C@H](C(=O)N[C@@H](C)C(=O)N[C@@H](CCCCN)C(=O)N[C@H](C(=O)N[C@@H](C)C(=O)N[C@@H](CC(C)C)C(=O)N[C@@H](CCCCN)C(=O)N[C@@H](C)C(=O)N[C@@H](CC(C)C)C(N)=O)C(C)C)[C@@H](C)CC [DRAMP02272a] (H-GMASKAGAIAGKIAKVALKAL-NH2)", "Modal MIC", 4),
    ("CC[C@H](C)[C@H](NC(=O)[C@H](C)NC(=O)[C@H](CCCCN)NC(=O)[C@@H]1CCCN1C(=O)[C@@H](NC(=O)[C@H](CC(C)C)NC(=O)[C@H](CO)NC(=O)[C@H](Cc1ccccc1)NC(=O)[C@H](CC(C)C)NC(=O)[C@@H](N)Cc1ccccc1)[C@@H](C)CC)C(=O)NCC(=O)NCC(=O)N[C@@H](CC(C)C)C(=O)N[C@H](C(=O)N[C@@H](CO)C(=O)N[C@@H](C)C(=O)N[C@@H](Cc1ccccc1)C(=O)N[C@@H](CCCCN)C(N)=O)[C@@H](C)CC", "Modal MIC", 2),
]

Now look at this entry.
Query: Look up and state reported Modal MIC for CC(C)C[C@H](NC(=O)[C@H](CCCCN)NC(=O)[C@H](CO)NC(=O)[C@H](CCCCN)NC(=O)[C@H](Cc1c[nH]c2ccccc12)NC(=O)[C@H](C)NC(=O)[C@H](CCCCN)NC(=O)[C@H](CCCCN)NC(=O)[C@H](CC(C)C)NC(=O)[C@H](Cc1ccccc1)NC(=O)[C@H](CO)NC(=O)CN)C(=O)N[C@@H](C)C(=O)N[C@@H](CCCCN)C(=O)N[C@@H](CCCCN)C(=O)N[C@@H](CC(C)C)C(=O)N[C@@H](CCCNC(=N)N)C(=O)N[C@@H](C)C(=O)N[C@@H](CCCCN)C(=O)NCC(N)=O [PS-PB-20a] (H-GSFLKKAWKSKLAKKLRAKG-NH2)
Response: 3.5
